The following compounds are listed with their measured IC50 values.
Target of assay: Prostaglandin G/H synthase 1 (Homo sapiens, UniProt P23219)
Sequence (P23219 whole entry): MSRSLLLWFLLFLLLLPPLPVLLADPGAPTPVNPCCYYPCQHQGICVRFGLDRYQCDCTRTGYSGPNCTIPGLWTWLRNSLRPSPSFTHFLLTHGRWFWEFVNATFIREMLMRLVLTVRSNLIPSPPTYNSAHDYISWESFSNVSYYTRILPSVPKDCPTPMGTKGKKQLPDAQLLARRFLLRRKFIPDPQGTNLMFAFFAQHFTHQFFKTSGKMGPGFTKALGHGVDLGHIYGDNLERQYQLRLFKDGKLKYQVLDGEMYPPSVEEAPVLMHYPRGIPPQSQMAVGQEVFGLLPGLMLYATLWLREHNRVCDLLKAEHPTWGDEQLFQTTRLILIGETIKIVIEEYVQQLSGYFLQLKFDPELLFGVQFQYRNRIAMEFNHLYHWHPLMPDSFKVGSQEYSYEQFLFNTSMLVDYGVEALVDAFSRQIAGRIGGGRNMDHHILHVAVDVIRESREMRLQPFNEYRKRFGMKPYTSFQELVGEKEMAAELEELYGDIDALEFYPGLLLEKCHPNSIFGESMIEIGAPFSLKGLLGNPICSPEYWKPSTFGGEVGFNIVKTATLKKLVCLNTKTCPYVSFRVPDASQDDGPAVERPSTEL
Assay: Inhibition of Prostaglandin G/H synthase 1 in human U937 cells

As a guide, the following entries are already answered.
CS(=O)(=O)Nc1cc2c(cc1Oc1ccc(F)cc1F)C(=O)CC2 [FLOSULIDE]; > 50 µM
Cc1ccccc1Sc1cc2c(cc1NS(C)(=O)=O)CCC2=O; > 50 µM
Cc1ccc(Sc2cc3c(cc2NS(C)(=O)=O)CCC3=O)cc1; > 1 µM

Consider now this further compound.
Q: Supply recorded IC50 for CS(=O)(=O)Nc1cc2c(cc1Sc1c(F)cccc1F)C(=O)CC2 here.
A: > 50 µM

----------
Assay: Plasma clearance rate was determined for the compound in squirrel monkeys
Type: ADME, organism-based
Condition context: saimiri
Measurement label: clearance (mL/min)
Just the number please, in mL/min, no unit attached.

Q: Supply recorded clearance for CS(=O)(=O)Nc1cc2c(cc1Sc1ccc(F)cc1F)C(=O)CC2 here.
A: 0.5

----------
Assay: Plasma clearance rate was determined for the compound in rats
Type: ADME, organism-based
Condition context: rat
Measurement label: clearance (mL/min)
Just the number please, in mL/min, no unit attached.

Q: Supply recorded clearance for CS(=O)(=O)Nc1cc2c(cc1Sc1ccc(F)cc1F)C(=O)CC2 here.
A: 0.5

----------
Target of assay: Prostaglandin G/H synthase 1 (Homo sapiens, UniProt P23219)
Assay: Inhibition of Prostaglandin G/H synthase 1 in human U937 cells
Measurement label: IC50

As a guide, the following entries are already answered.
CS(=O)(=O)Nc1cc2c(cc1Sc1ccccc1F)C(=O)CC2; > 50 µM
CS(=O)(=O)Nc1cc2c(cc1Sc1ccc(F)cc1F)C(=O)CC2; > 50 µM
CCS(=O)(=O)Nc1cc2c(cc1Sc1ccc(F)cc1F)C(=O)CC2; > 10 µM
CS(=O)(=O)Nc1cc2c(cc1Sc1nccs1)C(=O)CC2; > 10 µM

Q: Supply recorded IC50 for CS(=O)(=O)Nc1cc2c(cc1OC1CCCCC1)C(=O)CC2 here.
A: > 1 µM

Q: Supply recorded IC50 for CS(=O)(=O)Nc1cc2c(cc1Sc1ccc(Cl)cc1Cl)C(=O)CC2 here.
A: 40 µM

Q: Supply recorded IC50 for CS(=O)(=O)Nc1cc2c(cc1Cc1ccc(F)cc1F)C(=O)CC2 here.
A: < 1 µM

Q: Supply recorded IC50 for CS(=O)(=O)Nc1cc2c(cc1Sc1ccc(Br)cc1)C(=O)CC2 here.
A: > 10 µM

Q: Supply recorded IC50 for CS(=O)(=O)Nc1cc2c(cc1Sc1ccc(F)cc1)C(=O)CC2 here.
A: > 50 µM

Q: Supply recorded IC50 for CS(=O)(=O)Nc1cc2c(cc1SC1CCCCC1)C(=O)CC2 here.
A: > 50 µM

Q: Supply recorded IC50 for CS(=O)(=O)Nc1cc2c(cc1OC1CCCC1)C(=O)CC2 here.
A: > 10 µM

----------
Tested on: Rattus norvegicus
Assay: In vivo antiinflammatory activity by the Carrageenan-induced rat paw edema assay.
Type: functional
Measurement label: ED30

As a guide, the following entries are already answered.
CS(=O)(=O)Nc1cc2c(cc1Sc1ccc(Br)cc1)C(=O)CC2; 3 MPK
CS(=O)(=O)Nc1cc2c(cc1SC1CCCCC1)C(=O)CC2; >3 MPK
CS(=O)(=O)Nc1cc2c(cc1OC1CCCCC1)C(=O)CC2; 10 MPK
CS(=O)(=O)Nc1cc2c(cc1Sc1ccc(Cl)cc1Cl)C(=O)CC2; 0.1 MPK
CS(=O)(=O)Nc1cc2c(cc1Sc1nccs1)C(=O)CC2; 0.85 MPK

Q: Supply recorded ED30 for Cc1ccc(Sc2cc3c(cc2NS(C)(=O)=O)CCC3=O)cc1 here.
A: 10 MPK

Q: Supply recorded ED30 for CS(=O)(=O)Nc1cc2c(cc1Oc1ccc(F)cc1F)C(=O)CC2 [FLOSULIDE] here.
A: 0.6 MPK
